assay: xn = mol fraction of the nth substance listed, in the solute-free solvent; settings: 298.15 K; x2 = 0.6
assay.readout: solubility (g/100 g solution)

O=C(CC(=O)c1ccccc1)c1ccccc1 + CO + O | 0.783
CN1CCN(C(=O)OC2c3nccnc3C(=O)N2c2ccc(Cl)cn2)CC1 (centres undefined) + CCO + O | 0.85
CN1CCN(C(=O)OC2c3nccnc3C(=O)N2c2ccc(Cl)cn2)CC1 (centres undefined) + C1CCOC1 + O | 2.66
O=C(CC(=O)c1ccccc1)c1ccccc1 + CCO + O | 1.47
O=c1[nH]cc(F)c(=O)[nH]1 + CO + C1CCOC1 | 0.407
CN1CCN(C(=O)OC2c3nccnc3C(=O)N2c2ccc(Cl)cn2)CC1 (centres undefined) + CC(C)=O + O | 1.04
CN1CCN(C(=O)OC2c3nccnc3C(=O)N2c2ccc(Cl)cn2)CC1 (centres undefined) + CC#N + O | 3.38
O=c1ccc2ccccc2o1 + CC(C)=O + O | 49.6
O=c1ccc2ccccc2o1 + CO + O | 16
CCOC(=O)C1=CC2(CC)CCCN3CCc4c(n1c1ccccc41)C32 (centres undefined) + CCO + O | 0.52
CCCCN1CCCCC1C(=O)Nc1c(C)cccc1C.Cl.O (centres undefined) + CO + O | 6.91
CCCCN1CCCCC1C(=O)Nc1c(C)cccc1C.Cl.O (centres undefined) + CCO + O | 3.43
O=C(CC(=O)c1ccccc1)c1ccccc1 + CC(C)O + O | 1.47
CC1(C)SC2C(NC(=O)C(NC(=O)N3CCNC3=O)c3ccccc3)C(=O)N2C1C(=O)O (centres undefined) + CO + CC(C)O | 0.374

====

assay: xn = mol fraction of the nth substance listed, in the solute-free solvent; conditions: 328.15 K; x2 = 0.3
assay.readout: solubility (g/100 g solution)

CN1CCN(C(=O)OC2c3nccnc3C(=O)N2c2ccc(Cl)cn2)CC1 (stereo unspecified) + C1CCOC1 + O | 1.47
CN1CCN(C(=O)OC2c3nccnc3C(=O)N2c2ccc(Cl)cn2)CC1 (stereo unspecified) + CCO + O | 0.818
CCCCN1CCCCC1C(=O)Nc1c(C)cccc1C.Cl.O (stereo unspecified) + CO + O | 25.1
CCCCN1CCCCC1C(=O)Nc1c(C)cccc1C.Cl.O (stereo unspecified) + CCO + O | 15.8
CN1CCN(C(=O)OC2c3nccnc3C(=O)N2c2ccc(Cl)cn2)CC1 (stereo unspecified) + CC(C)=O + O | 0.752
CN1CCN(C(=O)OC2c3nccnc3C(=O)N2c2ccc(Cl)cn2)CC1 (stereo unspecified) + CC#N + O | 1.77

====

assay: xn = mol fraction of the nth substance listed, in the solute-free solvent; conditions: 323.15 K; x2 = 0.4
Listed molecules paired with reported solubility (g/100 g solution)
assay.readout: solubility (g/100 g solution)

CC1(C)SC2C(NC(=O)C(NC(=O)N3CCNC3=O)c3ccccc3)C(=O)N2C1C(=O)O (centres undefined) + CO + CC(C)O | 0.832
CCCCN1CCCCC1C(=O)Nc1c(C)cccc1C.Cl.O (centres undefined) + CO + O | 22.3
CCCCN1CCCCC1C(=O)Nc1c(C)cccc1C.Cl.O (centres undefined) + CCO + O | 14.2
CCOC(=O)C1=CC2(CC)CCCN3CCc4c(n1c1ccccc41)C32 (centres undefined) + CCO + O | 0.668

====

experiment: xn = mol fraction of the nth substance listed, in the solute-free solvent; settings: 318.15 K; x2 = 0.8
Listed compounds paired with reported solubility (g/100 g solution)
assay.readout: solubility (g/100 g solution)

CN1CCN(C(=O)OC2c3nccnc3C(=O)N2c2ccc(Cl)cn2)CC1 (stereo not drawn) + CCO + O | 2.12
CN1CCN(C(=O)OC2c3nccnc3C(=O)N2c2ccc(Cl)cn2)CC1 (stereo not drawn) + C1CCOC1 + O | 7.53
CN1CCN(C(=O)OC2c3nccnc3C(=O)N2c2ccc(Cl)cn2)CC1 (stereo not drawn) + CC(C)=O + O | 3.29

====

test: xn = mol fraction of the nth substance listed, in the solute-free solvent; conditions: 283.15 K; x2 = 0.08908
assay.readout: solubility (g/100 g solution)

O=[N+]([O-])c1cc[nH]n1 + CCO + O | 0.319
CC(=O)Nc1ccc(OC(=O)c2ccccc2OC(C)=O)cc1 + CCO + O | 0.0122
CS(=O)(=O)c1ccc(C(O)C(CF)NC(=O)C(Cl)Cl)cc1 (centres undefined) + CCO + O | 0.295
COC(=O)C1=C(C)NC(C)=C(C(=O)OCC(C)C)C1c1ccccc1[N+](=O)[O-] (centres undefined) + CCO + O | 0.503

====

Listed compounds paired with reported solubility (g/100 g solution)
assay: xn = mol fraction of the nth substance listed, in the solute-free solvent; details: 318.15 K; x2 = 0.8
assay.readout: solubility (g/100 g solution)

O=C(CC(=O)c1ccccc1)c1ccccc1 + CCO + O | 8.9
O=c1ccc2ccccc2o1 + CO + O | 77.3
CN1CCN(C(=O)OC2c3nccnc3C(=O)N2c2ccc(Cl)cn2)CC1 (stereo not given) + CC#N + O | 7.02
CCCCN1CCCCC1C(=O)Nc1c(C)cccc1C.Cl.O (stereo not given) + CO + O | 20.6
CCCCN1CCCCC1C(=O)Nc1c(C)cccc1C.Cl.O (stereo not given) + CCO + O | 12.4
CC1(C)SC2C(NC(=O)C(NC(=O)N3CCNC3=O)c3ccccc3)C(=O)N2C1C(=O)O (stereo not given) + CCO + CC(C)O | 1.67
CCOC(=O)C1=CC2(CC)CCCN3CCc4c(n1c1ccccc41)C32 (stereo not given) + CCO + O | 1.87
CC1(C)SC2C(NC(=O)C(NC(=O)N3CCNC3=O)c3ccccc3)C(=O)N2C1C(=O)O (stereo not given) + CO + CC(C)O | 1.09
O=C(CC(=O)c1ccccc1)c1ccccc1 + CO + O | 2.72
O=C(CC(=O)c1ccccc1)c1ccccc1 + CC(C)O + O | 7.02

====

assay: xn = mol fraction of the nth substance listed, in the solute-free solvent; details: 308.15 K; x2 = 0.7
Decision: solubility (g/100 g solution) >= 5 yields Yes, all other cases yield No.

CN1CCN(C(=O)OC2c3nccnc3C(=O)N2c2ccc(Cl)cn2)CC1 (centres undefined) + CCO + O | No
CC1(C)SC2C(NC(=O)C(NC(=O)N3CCNC3=O)c3ccccc3)C(=O)N2C1C(=O)O (centres undefined) + CO + CC(C)O | No
CN1CCN(C(=O)OC2c3nccnc3C(=O)N2c2ccc(Cl)cn2)CC1 (centres undefined) + C1CCOC1 + O | No
CN1CCN(C(=O)OC2c3nccnc3C(=O)N2c2ccc(Cl)cn2)CC1 (centres undefined) + CC#N + O | Yes
CCOC(=O)C1=CC2(CC)CCCN3CCc4c(n1c1ccccc41)C32 (centres undefined) + CCO + O | No
CCCCN1CCCCC1C(=O)Nc1c(C)cccc1C.Cl.O (centres undefined) + CO + O | Yes
CCCCN1CCCCC1C(=O)Nc1c(C)cccc1C.Cl.O (centres undefined) + CCO + O | Yes
O=c1ccc2ccccc2o1 + CO + O | Yes
CN1CCN(C(=O)OC2c3nccnc3C(=O)N2c2ccc(Cl)cn2)CC1 (centres undefined) + CC(C)=O + O | No

====

assay: xn = mol fraction of the nth substance listed, in the solute-free solvent; settings: 318.15 K; x2 = 0.7297
Listed compounds paired with reported solubility (g/100 g solution)
assay.readout: solubility (g/100 g solution)

CC(=O)Nc1ccc(OC(=O)c2ccccc2OC(C)=O)cc1 + CC(C)O + O | 0.68
COC(=O)C1=C(C)NC(C)=C(C(=O)OCC(C)C)C1c1ccccc1[N+](=O)[O-] (centres undefined) + CCCO + O | 10
CS(=O)(=O)c1ccc(C(O)C(CF)NC(=O)C(Cl)Cl)cc1 (centres undefined) + CC(C)O + O | 2.29
O=[N+]([O-])c1cc[nH]n1 + CCCO + O | 7.19

====

experiment: xn = mol fraction of the nth substance listed, in the solute-free solvent; settings: 298.15 K; x2 = 0.08908
Listed compounds paired with reported solubility (g/100 g solution)
assay.readout: solubility (g/100 g solution)

COC(=O)C1=C(C)NC(C)=C(C(=O)OCC(C)C)C1c1ccccc1[N+](=O)[O-] (centres undefined) + CCO + O | 0.987
CC(=O)Nc1ccc(OC(=O)c2ccccc2OC(C)=O)cc1 + CCO + O | 0.0339
CS(=O)(=O)c1ccc(C(O)C(CF)NC(=O)C(Cl)Cl)cc1 (centres undefined) + CCO + O | 0.655
O=[N+]([O-])c1cc[nH]n1 + CCO + O | 0.581

====

Listed molecules paired with reported solubility (g/100 g solution)
assay: xn = mol fraction of the nth substance listed, in the solute-free solvent; conditions: 298.15 K; x2 = 0.4
assay.readout: solubility (g/100 g solution)

O=c1ccc2ccccc2o1 + CC(C)=O + O | 38.4
CCOC(=O)C1=CC2(CC)CCCN3CCc4c(n1c1ccccc41)C32 (stereo not drawn) + CCO + O | 0.211
CC1(C)SC2C(NC(=O)C(NC(=O)N3CCNC3=O)c3ccccc3)C(=O)N2C1C(=O)O (stereo not drawn) + CO + CC(C)O | 0.299

These measurements were taken from the CheMixHub drug solubility set.
